system: cloned human dopamine D3 receptors (Homo sapiens)
Construct: expressed in transfected cells; membrane homogenate
Sequence (P35462 whole entry): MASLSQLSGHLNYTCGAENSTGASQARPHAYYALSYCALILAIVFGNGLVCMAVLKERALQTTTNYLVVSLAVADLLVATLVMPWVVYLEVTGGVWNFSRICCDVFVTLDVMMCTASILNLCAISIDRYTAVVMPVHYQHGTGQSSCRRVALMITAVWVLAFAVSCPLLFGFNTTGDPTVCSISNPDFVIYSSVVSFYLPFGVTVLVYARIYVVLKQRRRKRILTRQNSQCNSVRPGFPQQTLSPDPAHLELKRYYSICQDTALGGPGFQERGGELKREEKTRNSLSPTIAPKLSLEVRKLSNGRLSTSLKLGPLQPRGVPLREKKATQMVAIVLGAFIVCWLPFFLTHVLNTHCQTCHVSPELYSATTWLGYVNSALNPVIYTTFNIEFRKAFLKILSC
protocol-details: [N-Methyl-3H]Spiroperidol binding to cloned human dopamine D3 receptors (Protocol 1)
assay-context: the 21st table; read-out: D3 Ki
measurement-label: Ki (nM)

See these solved cases before continuing.
C[C@@H]1CN(c2csc3cc(F)ccc23)C[C@H](C)N1CCCCNC(=O)c1cccc(Cl)c1: 65.1
COc1ccc2[nH]c(C(=O)NCCCCN3[C@H](C)CN(c4csc5cc(C(F)(F)F)ccc45)C[C@@H]3C)cc2c1: 41.3

A = C[C@@H]1CN(c2csc3cc(C(F)(F)F)ccc23)C[C@H](C)N1CCCCNC(=O)c1cccc(C(F)(F)F)c1
B = C[C@@H]1CN(c2csc3cc(F)ccc23)C[C@H](C)N1CCCCNC(=O)c1cc2ccccc2s1
Please choose the item with the lower Ki value from this pair: A and B Choose, then provide that item's label.
B

a = C[C@@H]1CN(c2csc3cc(F)ccc23)C[C@H](C)N1CCCCNC(=O)c1cccc2ccccc12
b = C[C@@H]1CN(c2csc3cc(C(F)(F)F)ccc23)C[C@H](C)N1CCCCNC(=O)c1ccc2ccccc2c1
c = C[C@@H]1CN(c2csc3cc(C(F)(F)F)ccc23)C[C@H](C)N1CCCCNC(=O)c1cccs1 [compound 827046]
d = C[C@@H]1CN(c2csc3cc(C(F)(F)F)ccc23)C[C@H](C)N1CCCCNC(=O)c1cccc2ccccc12
Order the records by Ki, with each subsequent value no larger than the one before. # list labels per requested ordering
d, a, b, c
(d: 357 nM, a: 186 nM, b: 112 nM, c: 56.9 nM)

I = C[C@@H]1CN(c2csc3cc(C(F)(F)F)ccc23)C[C@H](C)N1CCCCNC(=O)c1cc2ccccc2n1C
II = C[C@@H]1CN(c2csc3cc(F)ccc23)C[C@H](C)N1CCCCNC(=O)c1cnc2ccccc2n1
III = C[C@@H]1CN(c2csc3cc(C(F)(F)F)ccc23)C[C@H](C)N1CCCCNC(=O)c1ccncc1
Falling order of Ki, please. Provide the labels, sequenced as the question asks.
III, II, I
(III: 253 nM, II: 133 nM, I: 81.2 nM)

A = C[C@@H]1CN(c2csc3cc(C(F)(F)F)ccc23)C[C@H](C)N1CCCCNC(=O)c1cccs1 [compound 827037]
B = C[C@@H]1CN(c2csc3cc(C(F)(F)F)ccc23)C[C@H](C)N1CCCCNC(=O)c1ccc2cc[nH]c2c1
Which is greater in Ki, the first item A or the second item B ? Answer with the label corresponding to your selection.
A
